src = ChEMBL document CHEMBL5724914

# test.description: The drug is tested on Z-002 corresponding to rabbit gut metagenome with ENA study accession number: PRJEB37062 and ENA sample accession number: ERS12561802 for biotransformation under anaerobic condition. The drug concentrations were measured over 9 timepoints collected between 0 and 24 hours of incubation by liquid-chromatography-coupled mass spectrometry (LC–MS); also: call rule not given here
# run.conditions: 2 µM
experimental.endpoint: Bacterial Biotransformation

COc1ccnc(C[S+]([O-])c2nc3ccc(OC(F)F)cc3[nH]2)c1OC (centres undefined) ... Compound NOT metabolized
COc1ccccc1OCCNCC(O)COc1cccc2[nH]c3ccccc3c12 (centres undefined) ... Compound NOT metabolized
COc1cc2nc(N3CCN(C(=O)C4COc5ccccc5O4)CC3)nc(N)c2cc1OC.CS(=O)(=O)O (centres undefined) [DOXAZOSIN MESYLATE] ... Compound NOT metabolized

###

# test.description: The drug is tested on WLS-007 corresponding to human gut metagenome with ENA study accession number: PRJEB37062 and ENA sample accession number: ERS12561742 for biotransformation under anaerobic condition. The drug concentrations were measured over 9 timepoints collected between 0 and 24 hours of incubation by liquid-chromatography-coupled mass spectrometry (LC–MS)
# run.conditions: 2 µM
experimental.endpoint: Bacterial Biotransformation

CC#CCn1c(N2CCC[C@@H](N)C2)nc2c1c(=O)n(Cc1nc(C)c3ccccc3n1)c(=O)n2C ... Compound NOT metabolized
COc1cc2nc(N3CCN(C(=O)C4CCCO4)CC3)nc(N)c2cc1OC (stereo not drawn) ... Compound metabolized
COc1ccc(Cc2nccc3cc(OC)c(OC)cc23)cc1OC ... Compound metabolized
CN1CCC(OC(c2ccccc2)c2ccccc2)CC1 ... Compound NOT metabolized
COc1ccccc1OCCNCC(O)COc1cccc2[nH]c3ccccc3c12 (stereo not drawn) ... Compound NOT metabolized
Br.COc1ccc2c(c1)[C@]13CCCC[C@@H]1[C@H](C2)N(C)CC3.O [DEXTROMETHORPHAN HYDROBROMIDE] ... Compound NOT metabolized
Br.CN1CCC[C@@H]1Cc1c[nH]c2ccc(CCS(=O)(=O)c3ccccc3)cc12 [ELETRIPTAN HYDROBROMIDE] ... Compound metabolized

Could you share which Bacterial Biotransformation value was measured for "C[C@]12C=CC(=O)C=C1CC[C@@H]1[C@@H]2C(=O)C[C@@]2(C)[C@H]1CC[C@]2(O)C(=O)CO" ?
Compound metabolized

###

# test.description: The drug is tested on Z-012 corresponding to metagenome with ENA study accession number: PRJEB37062 and ENA sample accession number: ERS12561812 for biotransformation under anaerobic condition. The drug concentrations were measured over 9 timepoints collected between 0 and 24 hours of incubation by liquid-chromatography-coupled mass spectrometry (LC–MS)
# run.conditions: 2 µM
experimental.endpoint: Bacterial Biotransformation

COc1ccc(/C=C/C(=O)Nc2ccccc2C(=O)O)cc1OC ... Compound NOT metabolized
CCN(CC)C(=O)C1(c2ccccc2)CC1CN (centres undefined) ... Compound NOT metabolized
COC1=C(OC)C(=O)C(CCCCCCCCCCO)=C(C)C1=O ... Compound metabolized
CCOc1cc(CC(=O)N[C@@H](CC(C)C)c2ccccc2N2CCCCC2)ccc1C(=O)O [REPAGLINIDE] ... Compound metabolized

Could you now consider this next compound?
Could you share which Bacterial Biotransformation value was measured for "N#Cc1ccc2[nH]cc(CCCCN3CCN(c4ccc5oc(C(N)=O)cc5c4)CC3)c2c1" ?
Compound NOT metabolized

###

# test.description: The drug is tested on Z-003 corresponding to pig gut metagenome with ENA study accession number: PRJEB37062 and ENA sample accession number: ERS12561803 for biotransformation under anaerobic condition. The drug concentrations were measured over 9 timepoints collected between 0 and 24 hours of incubation by liquid-chromatography-coupled mass spectrometry (LC–MS)
# run.conditions: 2 µM
experimental.endpoint: Bacterial Biotransformation

The examples below pair each entry with its known result.
CSc1ccc2c(c1)C(N1CCN(C)CC1)Cc1ccccc1S2.O=C(O)/C=C\C(=O)O (stereo unspecified) ... Compound metabolized
C[C@]12CCC(=O)C=C1[C@@H]1C[C@@H]1[C@H]1[C@@H]3[C@@H]4C[C@@H]4[C@@]4(CCC(=O)O4)[C@@]3(C)CC[C@@H]12 [DROSPIRENONE] ... Compound metabolized
CN1CCC(=C2c3ccccc3CC(=O)c3sccc32)CC1.O=C(O)/C=C/C(=O)O [KETOTIFEN FUMARATE] ... Compound NOT metabolized
COc1ccc(Cc2nccc3cc(OC)c(OC)cc23)cc1OC [PAPAVERINE] ... Compound metabolized
CC1Cc2ccccc2N1NC(=O)c1ccc(Cl)c(S(N)(=O)=O)c1 (stereo unspecified) [INDAPAMIDE] ... Compound NOT metabolized
CN(C)CCOC(C)(c1ccccc1)c1ccccn1.O=C(O)CCC(=O)O (stereo unspecified) [DOXYLAMINE SUCCINATE] ... Compound NOT metabolized

Could you share which Bacterial Biotransformation value was measured for CN1C[C@H](C(=O)N[C@]2(C)O[C@@]3(O)[C@@H]4CCCN4C(=O)[C@H](Cc4ccccc4)N3C2=O)C[C@@H]2c3cccc4[nH]cc(c34)C[C@H]21.CS(=O)(=O)O [DIHYDROERGOTAMINE MESYLATE] ?
Compound NOT metabolized

###

# test.description: The drug is tested on Z-030 corresponding to mouse gut metagenome with ENA study accession number: PRJEB37062 and ENA sample accession number: ERS12561829 for biotransformation under anaerobic condition. The drug concentrations were measured over 9 timepoints collected between 0 and 24 hours of incubation by liquid-chromatography-coupled mass spectrometry (LC–MS)
# run.conditions: 2 µM
experimental.endpoint: Bacterial Biotransformation

CN(C)CCOC(C)(c1ccccc1)c1ccccn1.O=C(O)CCC(=O)O (stereo not drawn) [DOXYLAMINE SUCCINATE] ... Compound NOT metabolized
CCCCCNC(=N)N/N=C/c1c[nH]c2ccc(OC)cc12.O=C(O)/C=C\C(=O)O [TEGASEROD MALEATE] ... Compound NOT metabolized
CC(=O)CCCCn1c(=O)c2c(ncn2C)n(C)c1=O ... Compound NOT metabolized
Nc1nc(N)nc(-c2cc(Cl)ccc2Cl)n1.O=C(O)/C=C\C(=O)O [IRSOGLADINE MALEATE] ... Compound NOT metabolized
Br.COc1ccc2c(c1)[C@]13CCCC[C@@H]1[C@H](C2)N(C)CC3.O [DEXTROMETHORPHAN HYDROBROMIDE] ... Compound NOT metabolized
N#Cc1ccc2[nH]cc(CCCCN3CCN(c4ccc5oc(C(N)=O)cc5c4)CC3)c2c1 ... Compound metabolized
COc1ccnc(C[S+]([O-])c2nc3ccc(OC(F)F)cc3[nH]2)c1OC (stereo not drawn) ... Compound metabolized

Could you now consider this next molecule?
Could you share which Bacterial Biotransformation value was measured for "O=C1CCc2ccc(OCCCCN3CCN(c4cccc(Cl)c4Cl)CC3)cc2N1" ?
Compound NOT metabolized

###

# test.description: The drug is tested on Z-005 corresponding to metagenome with ENA study accession number: PRJEB37062 and ENA sample accession number: ERS12561805 for biotransformation under anaerobic condition. The drug concentrations were measured over 9 timepoints collected between 0 and 24 hours of incubation by liquid-chromatography-coupled mass spectrometry (LC–MS)
# run.conditions: 2 µM
experimental.endpoint: Bacterial Biotransformation

The examples below pair each entry with its known result.
CC(C)(C)NC[C@H](O)COc1nsnc1N1CCOCC1.O=C(O)/C=C\C(=O)O [TIMOLOL MALEATE] ... Compound NOT metabolized
CC1Cc2ccccc2N1NC(=O)c1ccc(Cl)c(S(N)(=O)=O)c1 (configuration not stated) [INDAPAMIDE] ... Compound NOT metabolized
CCOc1ccccc1OCCN[C@H](C)Cc1ccc(OC)c(S(N)(=O)=O)c1.Cl [TAMSULOSIN HYDROCHLORIDE] ... Compound NOT metabolized
COc1ccnc(C[S+]([O-])c2nc3ccc(OC(F)F)cc3[nH]2)c1OC (configuration not stated) [PANTOPRAZOLE] ... Compound NOT metabolized
CN(C)C(=O)Oc1cc(OC(=O)N(C)C)cc(C(O)CNC(C)(C)C)c1 (configuration not stated) [BAMBUTEROL] ... Compound NOT metabolized
CCCC(C)(COC(N)=O)COC(=O)NC(C)C (configuration not stated) [CARISOPRODOL] ... Compound metabolized

Could you share which Bacterial Biotransformation value was measured for CCN(CC)C(=O)C1(c2ccccc2)CC1CN (configuration not stated) ?
Compound NOT metabolized

Could you share which Bacterial Biotransformation value was measured for C[C@H]1C[C@H]2[C@@H]3CCC4=CC(=O)C=C[C@]4(C)[C@@]3(F)[C@@H](O)C[C@]2(C)[C@@]1(O)C(=O)CO [BETAMETHASONE] ?
Compound NOT metabolized

Could you share which Bacterial Biotransformation value was measured for CCN(C)C(=O)Oc1cccc([C@H](C)N(C)C)c1.O=C(O)C(O)C(O)C(=O)O [RIVASTIGMINE TARTRATE] ?
Compound NOT metabolized

Could you share which Bacterial Biotransformation value was measured for CC(C)(C)NCC(O)COc1cccc2c1CC(O)C(O)C2 (configuration not stated) [NADOLOL] ?
Compound NOT metabolized

Could you share which Bacterial Biotransformation value was measured for COc1cc(C(=O)NCc2ccc(OCCN(C)C)cc2)cc(OC)c1OC [TRIMETHOBENZAMIDE] ?
Compound NOT metabolized
